Each recorded value in this set is attributed to the supplement of paper PMC10065799.

molecular target: Fes (UniProt P07332); experiment: phosphorylation enrichment, bacterial display (enrichment ratio); higher = better substrate or ligand; peptides without Tyr show the background;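 further: 11-residue human phosphosite peptides and single-mutation variants displayed on the E. coli surface, counted by deep sequencing, each peptide's frequency after selection divided by its frequency in the unselected input library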;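 further: frequency after pTyr selection over input frequency; kinase dosed for 20-30% of maximal phosphorylation in three min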
Sequence (P07332 whole entry, looked up): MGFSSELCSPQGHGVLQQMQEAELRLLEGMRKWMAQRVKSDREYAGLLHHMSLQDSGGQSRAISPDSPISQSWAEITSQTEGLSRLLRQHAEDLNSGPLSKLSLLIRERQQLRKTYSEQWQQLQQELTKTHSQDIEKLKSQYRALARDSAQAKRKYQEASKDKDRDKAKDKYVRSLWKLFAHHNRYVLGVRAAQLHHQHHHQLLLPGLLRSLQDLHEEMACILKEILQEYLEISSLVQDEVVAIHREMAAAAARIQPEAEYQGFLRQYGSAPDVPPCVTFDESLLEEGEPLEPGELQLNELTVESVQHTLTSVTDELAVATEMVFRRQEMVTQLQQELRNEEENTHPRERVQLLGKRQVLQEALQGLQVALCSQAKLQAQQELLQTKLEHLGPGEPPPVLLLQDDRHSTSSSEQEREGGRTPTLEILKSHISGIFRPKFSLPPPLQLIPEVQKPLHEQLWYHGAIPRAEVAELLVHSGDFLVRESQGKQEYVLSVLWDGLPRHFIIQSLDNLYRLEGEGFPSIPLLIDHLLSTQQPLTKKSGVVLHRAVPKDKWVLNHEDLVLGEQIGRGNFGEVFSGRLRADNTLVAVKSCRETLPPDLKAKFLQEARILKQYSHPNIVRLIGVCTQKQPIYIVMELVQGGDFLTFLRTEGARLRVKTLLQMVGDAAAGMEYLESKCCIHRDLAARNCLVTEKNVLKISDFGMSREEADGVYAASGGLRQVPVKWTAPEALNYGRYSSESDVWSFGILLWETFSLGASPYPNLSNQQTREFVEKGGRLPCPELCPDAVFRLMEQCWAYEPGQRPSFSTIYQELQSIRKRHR
What phosphorylation enrichment was measured for each of the following?

phosphorylation enrichment in this record for GGSDCYGSLRP [MYLK_Y846_R845C] : 0.887

phosphorylation enrichment in this record for SMEGLYSSTQD [CLIC5_Y111] : 1.71

phosphorylation enrichment in this record for FDNPVCQKTTE [LDLR_Y828_Y828C] : 1.18

phosphorylation enrichment in this record for LTMAPYSSVSV [FAM81A_Y24_L29V] : 1.08

phosphorylation enrichment in this record for QKNVSYVSTVS [TASOR_Y1043] : 0.514

phosphorylation enrichment in this record for LFEDRYLLGTS [ASS1_Y87_YF] : 1.8

phosphorylation enrichment in this record for NPSFNYEIVNQ [DYNC1H1_Y3379_R3384Q_YF] : 1.47

phosphorylation enrichment in this record for AKAEIYEMRPL [COX10_Y97] : 0.912

phosphorylation enrichment in this record for TDHLQYFDSNK [ARAP1_Y359_R358Q] : 1.31

phosphorylation enrichment in this record for GEYYRYLAEVA [YWHAG_Y133_D129E] : 0.858

phosphorylation enrichment in this record for GGGGGYNCSSG [FUS_Y232_R234C] : 0.666

phosphorylation enrichment in this record for QLPRGYISIPV [BAG3_Y205] : 0.974

phosphorylation enrichment in this record for FLAVGDHKPHI [IDS_Y225_Y225D] : 0.462

phosphorylation enrichment in this record for SISLRYEGRVF [ABL1_Y167_YF] : 1.26

phosphorylation enrichment in this record for QDLTDYLMKIL [ACTA2_Y190_R185Q] : 1.55

phosphorylation enrichment in this record for EILLSYPRTGY [TGM1_Y365_L366P] : 0.789

phosphorylation enrichment in this record for AHADEYGAEAL [HBA1_Y25_G23D] : 1.1

phosphorylation enrichment in this record for EVVGRYSGHNA [MLH1_Y183_V185G] : 0.514

phosphorylation enrichment in this record for AIDDKYSRREE [SART1_Y685] : 0.939

phosphorylation enrichment in this record for RRIHSYRGQLW [VHL_Y112_H115Q] : 0.813

phosphorylation enrichment in this record for ATATDYHTTSH [SLC4A1_Y46] : 0.482

phosphorylation enrichment in this record for IFETDYFRKGG [INSR_Y1189_YF] : 0.938

phosphorylation enrichment in this record for RLEKEYFDQHF [NPC1_Y394] : 1.29

phosphorylation enrichment in this record for SNKLTYGTMVF [ACOX1_Y275] : 1.02

phosphorylation enrichment in this record for SISLRYEGRVY [ABL1_Y167] : 1.09

phosphorylation enrichment in this record for LHSEAYLKYIE [PBRM1_Y1610] : 0.994

phosphorylation enrichment in this record for LEIETCRRLLD [KRT12_Y429_Y429C] : 1.33

phosphorylation enrichment in this record for FGLQAYTEVKT [ALDH2_Y502_YF] : 1.34

phosphorylation enrichment in this record for GIYKDYYRYNF [PLA2G2D_Y85_S80G] : 0.805

phosphorylation enrichment in this record for DKITQYVEEVK [STX2_Y49] : 1.23

phosphorylation enrichment in this record for YQRITYHNWRH [PDE6B_Y556_R552Q] : 0.619

phosphorylation enrichment in this record for PADQAYSWYQH [NDST1_Y711_R709Q] : 1.57

phosphorylation enrichment in this record for PGLSSYGVPAS [FLNB_Y1530] : 0.738

phosphorylation enrichment in this record for RPDSPYSRLHD [DOK2_Y271_P274L] : 0.983

phosphorylation enrichment in this record for ARLEYCENEKK [IRS1_Y47_Y47C] : 0.815

phosphorylation enrichment in this record for GRPLSYWLTGC [LYZL6_Y140_F139S] : 1.33

phosphorylation enrichment in this record for EKKKYYDAKIE [CASP5_Y104_T106A] : 0.978

phosphorylation enrichment in this record for LEVPLYKNGVK [CPS1_Y1069_A1065E] : 0.997

phosphorylation enrichment in this record for RSDEDYLYREE [POR_Y573] : 1.54

phosphorylation enrichment in this record for PLLLSYYLIKW [NUP160_Y773] : 1.83

phosphorylation enrichment in this record for EEKKKYFDTKI [CASP5_Y103_YF] : 0.954

phosphorylation enrichment in this record for ARGTRYRYVSQ [UCN3_Y95] : 0.637

phosphorylation enrichment in this record for GRLVEYDIDEV [SMS_Y134] : 1.48

phosphorylation enrichment in this record for IIQRAYRGHLL [SCN1A_Y1926_R1928G] : 0.671

phosphorylation enrichment in this record for EPVSDYINADI [PTPN11_Y304_N308D] : 1.33

phosphorylation enrichment in this record for VDTFWYKFLKP [EPM2A_Y86_R91P] : 1.28

phosphorylation enrichment in this record for KGSEGYLAAIF [NF1_Y2503_T2507I_YF] : 0.83

phosphorylation enrichment in this record for TEDELYQLSLQ [RASGRP2_Y378] : 1.27

phosphorylation enrichment in this record for HLNLTYRILSF [MMP23B_Y95_F91L] : 1.68

phosphorylation enrichment in this record for QTLTDYDIRFY [CSNK2A1_Y131] : 1.27

phosphorylation enrichment in this record for GEDPIYVTLEG [RTKtide_2018] : 1.47

phosphorylation enrichment in this record for YPIDHYLGKEM [G6PD_Y202_R198P] : 0.891

phosphorylation enrichment in this record for KQFWRYFPGNL [SLC25A4_Y112_A114P] : 1.02

phosphorylation enrichment in this record for SREDIYKRNIE [PDE4DIP_Y45] : 0.81

phosphorylation enrichment in this record for GFEEAYSVSKK [PAFAH1B1_Y28_F31S_YF] : 0.764

phosphorylation enrichment in this record for KAIMTYVFSFY [ACTN4_Y260_S262F] : 1.27

phosphorylation enrichment in this record for NHFKRYNLCAE [PTEN_Y68_I67R_YF] : 0.668

phosphorylation enrichment in this record for VTRDEYPSNPM [CEMIP2_Y1015_I1010V] : 0.751
